Listed here are compounds together with their documented melting point.

Worked cases, answers included:
# compound, result
rows = [
    ("CCOC(=O)C(C)=Cc1ccc([N+](=O)[O-])cc1", "75 °C"),
    ("O=C1c2ccccc2S(=O)(=O)N1CS(=O)(=O)c1c(Cl)cccc1Cl", "201 to 203 °C"),
    ("CC1(O)CC(C)(C)c2ccc(Oc3ccc([N+](=O)[O-])cc3)cc2O1 (stereo unspecified)", "159 to 160 °C"),
    ("Nc1ccc(S(=O)C(F)(F)C(F)F)cc1F (stereo unspecified)", "67 to 69 °C"),
]

Exercise: Indicate the recorded melting point value for this compound: NCc1cc(Cl)c(N=C2NCCN2)c(Cl)c1
Key: 205 to 206 °C

Exercise: Indicate the recorded melting point value for this compound: Nc1cccc(-c2ccc(CCN3CCN(c4cccc(C(F)(F)F)c4)CC3)cc2)n1
Key: 189 to 191 °C

* * *

test readout: melting point

Worked cases, answers included:
# chemical smiles, melting point
records = [
    ("COc1c(S(=O)(=O)Cl)ccc(Cl)c1CBr", "88 to 92 °C"),
    ("CCCCN1CCC(CCC(=O)c2ccc(N)nc2OC)CC1", "85 to 89 °C"),
    ("Brc1ccc2c(c1)oc1cc(Br)ccc12", "199 to 200 °C"),
    ("Oc1ccc(Nc2nc(NCc3ccco3)nc(Nc3cccc(Oc4ccccc4)c3)n2)cc1", "80 to 83 °C"),
    ("CCOC(=O)C(NC(=O)CNC(=O)CCl)C(=O)OCC", "104 to 105 °C"),
]

Field: next compound
Exercise: Indicate the recorded melting point value for this compound: COc1cc2c(cc1OC)CN(CCCCNC(=O)c1cc(Br)ccc1OCCF)CC2
Key: 119 to 121 °C

* * *

Listed here are compounds together with their documented melting point.

Worked cases, answers included:
# compound, melting point
records = [
    ("c1cn(CCc2ccc3c(c2)Cc2c(-c4ccsc4)n[nH]c2-3)cn1", "160 to 165 °C"),
    ("C=C1SC(=O)N(c2ccc3cc(-c4ccc(OC)c(C56CC7CC(CC(C7)C5)C6)c4)ccc3c2)C1=O", "286 to 287 °C"),
]

Exercise: Indicate the recorded melting point value for this compound: Cn1cncc1C(N)(c1ccoc1)c1ccc2c(c1)c(-c1cccc(Cl)c1)cc(=O)n2C (stereo not given)
Key: 197 °C

Exercise: Indicate the recorded melting point value for this compound: CCCCCCCCC1C=CC(Oc2ccc(C(=O)O)o2)=C2N=C3CCCC(C)(C)C3=C21 (stereo not given)
Key: 118 to 120 °C

Exercise: Indicate the recorded melting point value for this compound: CC(C)NCC(O)COc1ccc(NC(=O)N(C)C)cc1Cl (stereo not given)
Key: 130 °C

Exercise: Indicate the recorded melting point value for this compound: COC(=O)C(=O)c1ccccc1F
Key: 98 to 100 °C

* * *

Listed here are compounds together with their documented melting point.

Worked cases, answers included:
# compound, melting point
measured = [
    ("CN(C)c1cccc(Oc2cccc(-c3cccc(C(=O)NCCC#N)c3)n2)c1", "95 to 96 °C"),
    ("COc1cc2c(Oc3ccc4[nH]cc(C)c4c3)ncnc2cc1OCCCN1CCCC1", "75 to 77 °C"),
]

Exercise: Indicate the recorded melting point value for this compound: COc1cc(C(C)=O)cc(OC)c1OCCCN1CCC(c2noc3cc(F)ccc23)CC1
Key: 107 to 108 °C

Exercise: Indicate the recorded melting point value for this compound: CC(CN1C(=O)C2(COc3cc4c(cc32)CCO4)c2ccccc21)OCc1ccccc1 (stereo not given)
Key: 45 to 47 °C

Exercise: Indicate the recorded melting point value for this compound: COc1cc(CN2CCN(C(=O)c3ccc4c(c3)C(=O)c3ccccc3-4)CC2)cc(OC)c1OC
Key: 166 to 168 °C
